# Test Method Notes: PAMPA-BBB permeability
# Conditions: Supplementary Table 6
Measurement Label: PAMPA_BBB

C[N+](C)(C)CCCn1c(Cc2cc3c(cc2I)OCO3)nc2c(N)nc(F)nc21 1.3
C=CCc1cc2c(cc1Cc1nc3c(N)nc(F)nc3n1CCCNC(C)C)OCO2 4.6
C#CCN(C)CCCn1c(Cc2cc3c(cc2I)OCO3)nc2c(N)nc(F)nc21 11.1

[I] CC(C)NCCCn1c(Sc2cc3c(cc2I)CCC3)nc2c(N)ncnc21
[II] C=Cc1cc2c(cc1Cc1nc3c(N)nc(F)nc3n1CCCNC(C)C)OCO2
Which numeric PAMPA_BBB is bigger, that of I or that of II ? Response format: the label of the selected entry. I
(I: 15.1, II: 5.6)
